Test: soluble fraction after stress (log2 fold change); higher = more stays soluble; pooled small domains, quantitative proteomics
Conditions: stress: pH 4
reported property: soluble fraction (log2)
# output: bare number, no unit

Prompt: Report soluble fraction (log2) for `HMKPVYNKVEIPRGGEYALVLSDGTKVHLNSMSSLRFPVAFTTGKREVELQGEAYFEVSKTGQPFIVNV` please.
Response: 0.22

Prompt: Report soluble fraction (log2) for `HMATAPQIRAIYALGSKLGINQNSREDNLHQLVYSITGKESIKGLTNYEAARVQSELANMERK` please.
Response: 0.396

Prompt: Report soluble fraction (log2) for `HMFGIEIPEEAGKLQDYTLTDDDLEGGNTLKEIQFPQGARVVIIRRDDKFIIPDGSVELQSGDQLLIIYGE` please.
Response: -1.81

Prompt: Report soluble fraction (log2) for `HMNKMIIELGEKLKALRTENHLRQDQVARLVNVEKSSISMYETGMRQPSYTTLVRLADVFNVTTDYLLGRK` please.
Response: 0.307

Prompt: Report soluble fraction (log2) for `HMIVVTSPQVTDERIAEIVAFIEKHGVQAHVSRGTDRTVIGIIGKADPVLAEHLRSMQGVENVIKIS` please.
Response: -0.126

Kindly review the next sequence as well.
Prompt: Report soluble fraction (log2) for `HMGKNIQAIRYKNNMTQDQVVAKLNLMGISITKSTYAKLETNRMNIKASELVALAKLFHTDINAFFSG` please.
Response: -0.0779
